ASSAY_SYSTEM: Acetylcholinesterase (Homo sapiens)
Sequence (P22303 whole entry): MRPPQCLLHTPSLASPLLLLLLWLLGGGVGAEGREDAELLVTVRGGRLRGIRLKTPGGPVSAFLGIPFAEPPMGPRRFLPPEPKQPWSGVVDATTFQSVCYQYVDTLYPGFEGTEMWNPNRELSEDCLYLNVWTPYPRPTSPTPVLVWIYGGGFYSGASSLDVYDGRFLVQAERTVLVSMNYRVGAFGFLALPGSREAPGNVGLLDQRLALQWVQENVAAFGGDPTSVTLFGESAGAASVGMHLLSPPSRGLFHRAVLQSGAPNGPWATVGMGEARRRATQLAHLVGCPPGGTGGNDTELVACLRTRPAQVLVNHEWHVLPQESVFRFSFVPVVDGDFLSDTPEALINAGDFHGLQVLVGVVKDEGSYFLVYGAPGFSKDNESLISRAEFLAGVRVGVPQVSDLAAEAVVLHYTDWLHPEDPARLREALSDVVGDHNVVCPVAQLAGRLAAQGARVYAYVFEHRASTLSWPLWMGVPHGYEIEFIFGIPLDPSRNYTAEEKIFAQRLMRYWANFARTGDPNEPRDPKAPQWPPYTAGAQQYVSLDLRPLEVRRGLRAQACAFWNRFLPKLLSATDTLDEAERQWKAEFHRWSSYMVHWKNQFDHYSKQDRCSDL
ASSAY_NOTES: Inhibition of human acetylcholinesterase using […] as substrate at 10 uM preincubated for 4.5 mins followed by substrate addition measured after 2.5 mins by Ellman's spectrophotometric method
Classification field: 1 = inhibition at or over 20%; -1 = inhibition under 20%.

Some solved entries appear below for comparison.
COMPOUND: CCCCCCCNC(=O)Oc1ccc2c(c1)CN(C)C(c1c(Cl)cccc1Cl)N2C (configuration not stated)
CLASS_ASSIGNMENT: 1
//
COMPOUND: CCCCCCCNC(=O)Oc1ccc2c(c1)CN(C)C(c1ccc3ccccc3c1)N2C (configuration not stated)
CLASS_ASSIGNMENT: -1
//
COMPOUND: CCCCCCCNC(=O)Oc1ccc2c(c1)CN(C)C(c1ccccc1OC)N2C (configuration not stated)
CLASS_ASSIGNMENT: 1

Reported inhibition at or above 20%? CCCCCCCNC(=O)Oc1ccc2c(c1)CN(C)C(c1ccccc1C)N2C (configuration not stated)
-1

Reported inhibition at or above 20%? CCCCCCCNC(=O)Oc1ccc2c(c1)CN(C)C(c1cccc3ccccc13)N2C (configuration not stated)
-1

Reported inhibition at or above 20%? CCCCCCCNC(=O)Oc1ccc2c(c1)CN(C)C(c1ccccc1Cl)N2C (configuration not stated)
1

Reported inhibition at or above 20%? CCCCCCCNC(=O)Oc1ccc2c(c1)CN(Cc1ccccc1)C(c1ccccc1)N2C (configuration not stated)
-1
